For each record, write down the corresponding normalised response.
# Tested on: SK-BR-3
# assay.info: normalised response (% of control), CellTiter-Glo; higher = more viable cells (100 = DMSO, 0 = benzethonium chloride kill control)
# run.parameters: incubation time: 72 h
Give bare numbers, in %.

For each entry beneath this line, provide reported normalised response.
1. C=CCNC1=C2C[C@@H](C)C[C@H](OC)[C@H](O)[C@@H](C)/C=C(\C)[C@H](OC(N)=O)[C@@H](OC)/C=C\C=C(/C)C(=O)NC(=CC1=O)C2=O [Tanespimycin] (1000 nM)
2. C=CCNC1=C2C[C@@H](C)C[C@H](OC)[C@H](O)[C@@H](C)/C=C(\C)[C@H](OC(N)=O)[C@@H](OC)/C=C\C=C(/C)C(=O)NC(=CC1=O)C2=O [Tanespimycin] (10 nM)
3. C=CC[C@@H]1/C=C(\C)C[C@H](C)C[C@H](OC)[C@H]2O[C@@](O)(C(=O)C(=O)N3CCCC[C@H]3C(=O)O[C@H](/C(C)=C/[C@@H]3CC[C@@H](O)[C@H](OC)C3)[C@H](C)[C@@H](O)CC1=O)[C@H](C)C[C@@H]2OC [Tacrolimus] (1000 nM)
4. COc1cc(Nc2ncc3c(n2)-c2ccc(Cl)cc2C(c2c(F)cccc2OC)=NC3)ccc1C(=O)O [Alisertib] (10 nM)
5. N#CC[C@H](C1CCCC1)n1cc(-c2ncnc3[nH]ccc23)cn1 [Ruxolitinib] (10 nM)
6. OC[C@H]1O[C@@H](n2cnc3c2N=CNC[C@H]3O)C[C@@H]1O [Pentostatin] (1000 nM)

1: 38.5; 2: 103; 3: 88.5; 4: 70.4; 5: 81.5; 6: 104

For each entry beneath this line, provide reported normalised response.
1. Nc1ccn([C@@H]2O[C@H](CO)[C@@H](O)[C@@H]2O)c(=O)n1 [Cytarabine] (1 nM)
2. CN1CC[C@H](c2c(O)cc(O)c3c(=O)cc(-c4ccccc4Cl)oc23)[C@H](O)C1 [Alvocidib] (1 nM)
3. C[C@]1(c2nc3c(C(N)=O)cccc3[nH]2)CCCN1 [Veliparib] (1000 nM)
4. CS(=O)(=O)c1ccc(C(=O)Nc2ccc(Cl)c(-c3ccccn3)c2)c(Cl)c1 [Vismodegib] (1000 nM)
5. S=c1[nH]cnc2nc[nH]c12 [Mercaptopurine] (1000 nM)
6. S=c1[nH]cnc2nc[nH]c12 [Mercaptopurine] (1 nM)
7. OC[C@H]1O[C@@H](n2cnc3c2N=CNC[C@H]3O)C[C@@H]1O [Pentostatin] (1 nM)

101
112
101
86.5
95.2
95.7
108

For each entry beneath this line, provide reported normalised response.
1. CN(C)C/C=C/C(=O)Nc1cc2c(Nc3ccc(F)c(Cl)c3)ncnc2cc1O[C@H]1CCOC1 [Afatinib] (1 nM)
2. O=C(c1ccc(C(=O)N2CCC(N3CCCC3)CC2)c(Nc2ccccc2)c1)N1CCC(N2CCCC2)CC1 [UNC1215] (3000 nM)
3. Nc1ccn([C@@H]2O[C@H](CO)[C@@H](O)[C@@H]2O)c(=O)n1 [Cytarabine] (1000 nM)
4. CN1CCC(COc2cnc(-c3cccc(Cn4nc(-c5cccc(C#N)c5)ccc4=O)c3)nc2)CC1 (1 nM)

1: 98.9; 2: 93.5; 3: 46.7; 4: 71
